# System: SW480
# EXPERIMENT: Cytotoxicity against human SW480 cells by MTT assay
# Assay type: functional, cell-based

STRUCTURE NOTATION: Cn1cc(C[C@@H](CO)NCc2c3ccccc3cc3ccccc23)c2ccccc21
QUAL: =
IC50, µM: 13.5
//
STRUCTURE NOTATION: O=C(c1ccccc1)N(Cc1c2ccccc2cc2ccccc12)[C@H](CO)Cc1c[nH]c2ccccc12
QUAL: =
IC50, µM: 30.7
//
STRUCTURE NOTATION: CCCC(O)(CCC)[C@H](Cc1cn(CC)c2ccccc12)NCc1c2ccccc2cc2ccccc12
QUAL: >
IC50, µM: 40
//
STRUCTURE NOTATION: Cn1cc(C[C@H](NCc2c3ccccc3cc3ccccc23)C(C)(C)O)c2ccccc21
QUAL: =
IC50, µM: 15.1
//
STRUCTURE NOTATION: CCCC(O)(CCC)[C@H](Cc1c[nH]c2ccccc12)NCc1c2ccccc2cc2ccccc12
QUAL: >
IC50, µM: 40
//
STRUCTURE NOTATION: CCC(O)(CC)[C@H](Cc1cn(C)c2ccccc12)NCc1c2ccccc2cc2ccccc12
QUAL: >
IC50, µM: 40
//
STRUCTURE NOTATION: CC(=O)N(Cc1c2ccccc2cc2ccccc12)[C@@H](Cc1c[nH]c2ccccc12)C(C)(C)O
QUAL: =
IC50, µM: 17.2
//
STRUCTURE NOTATION: CCC(O)(CC)[C@H](Cc1c[nH]c2ccccc12)NCc1c2ccccc2cc2ccccc12
QUAL: >
IC50, µM: 40
//
STRUCTURE NOTATION: CC(=O)N(Cc1c2ccccc2cc2ccccc12)[C@H](CO)Cc1c[nH]c2ccccc12
QUAL: =
IC50, µM: 17.3
//
STRUCTURE NOTATION: CC(C)(O)[C@H](Cc1c[nH]c2ccccc12)N(Cc1c2ccccc2cc2ccccc12)C(=O)c1ccccc1
QUAL: >
IC50, µM: 40
//
STRUCTURE NOTATION: CCn1cc(C[C@H](NCc2c3ccccc3cc3ccccc23)C(O)(CC)CC)c2ccccc21
QUAL: >
IC50, µM: 40
//
STRUCTURE NOTATION: CCCCC(O)(CCCC)[C@H](Cc1c[nH]c2ccccc12)NCc1c2ccccc2cc2ccccc12
QUAL: >
IC50, µM: 40
//
STRUCTURE NOTATION: CC(C)(O)[C@H](Cc1c[nH]c2ccccc12)NCc1c2ccccc2cc2ccccc12
QUAL: =
IC50, µM: 11.7
//
STRUCTURE NOTATION: OC[C@H](Cc1c[nH]c2ccccc12)NCc1c2ccccc2cc2ccccc12
QUAL: >
IC50, µM: 40
//
STRUCTURE NOTATION: CCn1cc(C[C@@H](CO)NCc2c3ccccc3cc3ccccc23)c2ccccc21
QUAL: =
IC50, µM: 17.4
//
STRUCTURE NOTATION: CCCCC(O)(CCCC)[C@H](Cc1cn(CC)c2ccccc12)NCc1c2ccccc2cc2ccccc12
QUAL: >
IC50, µM: 40
//
STRUCTURE NOTATION: CCCC(O)(CCC)[C@H](Cc1cn(C)c2ccccc12)NCc1c2ccccc2cc2ccccc12
QUAL: >
IC50, µM: 40
//
STRUCTURE NOTATION: CCn1cc(C[C@H](NCc2c3ccccc3cc3ccccc23)C(C)(C)O)c2ccccc21
QUAL: =
IC50, µM: 17.6
//
STRUCTURE NOTATION: CCCCC(O)(CCCC)[C@H](Cc1cn(C)c2ccccc12)NCc1c2ccccc2cc2ccccc12
QUAL: >
IC50, µM: 40

----------
# System: HL-60
# EXPERIMENT: Cytotoxicity against human HL60 cells by MTT assay
# Assay type: functional, cell-based
Listed molecules paired with reported IC50
QUANTITY MEASURED: IC50

STRUCTURE NOTATION: Cn1cc(C[C@@H](CO)NCc2c3ccccc3cc3ccccc23)c2ccccc21
QUANTITY MEASURED: IC50
RESULT: 4.48 µM
//
STRUCTURE NOTATION: CC(C)(O)[C@H](Cc1c[nH]c2ccccc12)N(Cc1c2ccccc2cc2ccccc12)C(=O)c1ccccc1
QUANTITY MEASURED: IC50
RESULT: > 40 µM
//
STRUCTURE NOTATION: CCn1cc(C[C@@H](CO)NCc2c3ccccc3cc3ccccc23)c2ccccc21
QUANTITY MEASURED: IC50
RESULT: 6.18 µM
//
STRUCTURE NOTATION: CCn1cc(C[C@H](NCc2c3ccccc3cc3ccccc23)C(O)(CC)CC)c2ccccc21
QUANTITY MEASURED: IC50
RESULT: > 40 µM
//
STRUCTURE NOTATION: CCC(O)(CC)[C@H](Cc1cn(C)c2ccccc12)NCc1c2ccccc2cc2ccccc12
QUANTITY MEASURED: IC50
RESULT: > 40 µM
//
STRUCTURE NOTATION: CCCCC(O)(CCCC)[C@H](Cc1cn(C)c2ccccc12)NCc1c2ccccc2cc2ccccc12
QUANTITY MEASURED: IC50
RESULT: > 40 µM
//
STRUCTURE NOTATION: OC[C@H](Cc1c[nH]c2ccccc12)NCc1c2ccccc2cc2ccccc12
QUANTITY MEASURED: IC50
RESULT: > 40 µM
//
STRUCTURE NOTATION: CCCCC(O)(CCCC)[C@H](Cc1c[nH]c2ccccc12)NCc1c2ccccc2cc2ccccc12
QUANTITY MEASURED: IC50
RESULT: > 40 µM
//
STRUCTURE NOTATION: CC(C)(O)[C@H](Cc1c[nH]c2ccccc12)NCc1c2ccccc2cc2ccccc12
QUANTITY MEASURED: IC50
RESULT: 9.55 µM

----------
# Test system: SMMC-7721
# EXPERIMENT: Cytotoxicity against human SMMC7721 cells by MTT assay
# Assay type: functional, cell-based
pIC50: −log10 of the molar value.
QUANTITY MEASURED: pIC50

STRUCTURE NOTATION: CCCCC(O)(CCCC)[C@H](Cc1cn(CC)c2ccccc12)NCc1c2ccccc2cc2ccccc12
MEASURED TARGET: SMMC-7721
QUANTITY MEASURED: pIC50
QUAL: <
NUMERIC READOUT: 4.40
--
STRUCTURE NOTATION: CCn1cc(C[C@H](NCc2c3ccccc3cc3ccccc23)C(C)(C)O)c2ccccc21
MEASURED TARGET: SMMC-7721
QUANTITY MEASURED: pIC50
QUAL: =
NUMERIC READOUT: 4.87
--
STRUCTURE NOTATION: CCC(O)(CC)[C@H](Cc1cn(C)c2ccccc12)NCc1c2ccccc2cc2ccccc12
MEASURED TARGET: SMMC-7721
QUANTITY MEASURED: pIC50
QUAL: <
NUMERIC READOUT: 4.40
--
STRUCTURE NOTATION: CCn1cc(C[C@@H](CO)NCc2c3ccccc3cc3ccccc23)c2ccccc21
MEASURED TARGET: SMMC-7721
QUANTITY MEASURED: pIC50
QUAL: =
NUMERIC READOUT: 4.77
--
STRUCTURE NOTATION: OC[C@H](Cc1c[nH]c2ccccc12)NCc1c2ccccc2cc2ccccc12
MEASURED TARGET: SMMC-7721
QUANTITY MEASURED: pIC50
QUAL: <
NUMERIC READOUT: 4.40
--
STRUCTURE NOTATION: CCCC(O)(CCC)[C@H](Cc1cn(CC)c2ccccc12)NCc1c2ccccc2cc2ccccc12
MEASURED TARGET: SMMC-7721
QUANTITY MEASURED: pIC50
QUAL: <
NUMERIC READOUT: 4.40
--
STRUCTURE NOTATION: CC(C)(O)[C@H](Cc1c[nH]c2ccccc12)N(Cc1c2ccccc2cc2ccccc12)C(=O)c1ccccc1
MEASURED TARGET: SMMC-7721
QUANTITY MEASURED: pIC50
QUAL: <
NUMERIC READOUT: 4.40
--
STRUCTURE NOTATION: Cn1cc(C[C@@H](CO)NCc2c3ccccc3cc3ccccc23)c2ccccc21
MEASURED TARGET: SMMC-7721
QUANTITY MEASURED: pIC50
QUAL: =
NUMERIC READOUT: 4.82
--
STRUCTURE NOTATION: CCCCC(O)(CCCC)[C@H](Cc1cn(C)c2ccccc12)NCc1c2ccccc2cc2ccccc12
MEASURED TARGET: SMMC-7721
QUANTITY MEASURED: pIC50
QUAL: <
NUMERIC READOUT: 4.40
--
STRUCTURE NOTATION: CC(=O)N(Cc1c2ccccc2cc2ccccc12)[C@@H](Cc1c[nH]c2ccccc12)C(C)(C)O
MEASURED TARGET: SMMC-7721
QUANTITY MEASURED: pIC50
QUAL: =
NUMERIC READOUT: 4.92
--
STRUCTURE NOTATION: CCCC(O)(CCC)[C@H](Cc1cn(C)c2ccccc12)NCc1c2ccccc2cc2ccccc12
MEASURED TARGET: SMMC-7721
QUANTITY MEASURED: pIC50
QUAL: <
NUMERIC READOUT: 4.40
--
STRUCTURE NOTATION: CCn1cc(C[C@H](NCc2c3ccccc3cc3ccccc23)C(O)(CC)CC)c2ccccc21
MEASURED TARGET: SMMC-7721
QUANTITY MEASURED: pIC50
QUAL: <
NUMERIC READOUT: 4.40
--
STRUCTURE NOTATION: O=C(c1ccccc1)N(Cc1c2ccccc2cc2ccccc12)[C@H](CO)Cc1c[nH]c2ccccc12
MEASURED TARGET: SMMC-7721
QUANTITY MEASURED: pIC50
QUAL: =
NUMERIC READOUT: 4.68
--
STRUCTURE NOTATION: CCCCC(O)(CCCC)[C@H](Cc1c[nH]c2ccccc12)NCc1c2ccccc2cc2ccccc12
MEASURED TARGET: SMMC-7721
QUANTITY MEASURED: pIC50
QUAL: <
NUMERIC READOUT: 4.40
--
STRUCTURE NOTATION: CC(C)(O)[C@H](Cc1c[nH]c2ccccc12)NCc1c2ccccc2cc2ccccc12
MEASURED TARGET: SMMC-7721
QUANTITY MEASURED: pIC50
QUAL: =
NUMERIC READOUT: 4.87
--
STRUCTURE NOTATION: CC(=O)N(Cc1c2ccccc2cc2ccccc12)[C@H](CO)Cc1c[nH]c2ccccc12
MEASURED TARGET: SMMC-7721
QUANTITY MEASURED: pIC50
QUAL: =
NUMERIC READOUT: 4.85
--
STRUCTURE NOTATION: CCC(O)(CC)[C@H](Cc1c[nH]c2ccccc12)NCc1c2ccccc2cc2ccccc12
MEASURED TARGET: SMMC-7721
QUANTITY MEASURED: pIC50
QUAL: =
NUMERIC READOUT: 4.89
--
STRUCTURE NOTATION: Cn1cc(C[C@H](NCc2c3ccccc3cc3ccccc23)C(C)(C)O)c2ccccc21
MEASURED TARGET: SMMC-7721
QUANTITY MEASURED: pIC50
QUAL: =
NUMERIC READOUT: 4.81
--
STRUCTURE NOTATION: CCCC(O)(CCC)[C@H](Cc1c[nH]c2ccccc12)NCc1c2ccccc2cc2ccccc12
MEASURED TARGET: SMMC-7721
QUANTITY MEASURED: pIC50
QUAL: =
NUMERIC READOUT: 4.76
